Below: a set of entries, each annotated with reported pIC50.
- assayed target: Cbl-b (aa36-427) (Homo sapiens)
- Construct: Cbl-b (aa36-427, in-house); made in house
- assay explanation: Co-expressed Cbl-b with BirA biochemical assay (CBLB/E2-Ub binding, HTRF)
- run parameters: 0.6 nM Cbl-b co-expressed with BirA, HTRF; read-out: co-express CBLB/E2-Ub-binding assay IC50
Formally, pIC50 is defined as -log10 of the concentration c, with c in mol/L.

// below: answered compounds
Cc1cnc2c(C(=O)Nc3cncc([C@]4(c5nncn5C)C[C@@H](C)C4)c3)cc(CNC3(C)CCC3)cn12 :: 8.70
CC(C)CNCc1cc(C(=O)Nc2cncc([C@]3(c4nncn4C)C[C@@H](C)C3)c2)c2ncc(Cl)n2c1 :: 9.00
Cn1cnnc1[C@]1(c2cccc(NC(=O)c3cc(CNC4(C)CC4)cn4ccnc34)c2)C[C@@H](C)C1 :: 9.30
C[C@H](NCc1cc(C(=O)Nc2cccc([C@]3(c4nncn4C)C[C@@H](C)C3)c2)nc2c1OCC2(C)C)C1CC1 :: 8.42
Cn1cnnc1C[C@]1(c2cccc(NC(=O)c3cc(CNC4CCCCC4)c4c(n3)C(C)(C)CO4)c2)C[C@H](C#N)C1 :: 8.57

According to the records, this compound Cc1cnc2c(C(=O)Nc3cncc([C@]4(c5nncn5C)C[C@@H](C)C4)c3)cc(CN[C@@H](C)C3CCC3)cn12 displays pIC50 of 8.96

According to the records, this compound Cn1cnnc1[C@]1(c2cccc(NC(=O)c3cc(CNCC4(F)CCC4)cn4ccnc34)c2)C[C@H](CC#N)C1 displays pIC50 of 9.10

According to the records, this compound C[C@H](NCc1cc(C(=O)Nc2cccc([C@]3(Cc4nncn4C)C[C@@H](C#N)C3)c2)c2nccn2c1)C1CCCC1 displays pIC50 of 8.82

###

- assayed target: Cbl-b (aa36-427) (Homo sapiens, UniProt Q13191)
- Construct: Cbl-b (aa36-427, in-house); made in house
- Sequence (Q13191 36-427): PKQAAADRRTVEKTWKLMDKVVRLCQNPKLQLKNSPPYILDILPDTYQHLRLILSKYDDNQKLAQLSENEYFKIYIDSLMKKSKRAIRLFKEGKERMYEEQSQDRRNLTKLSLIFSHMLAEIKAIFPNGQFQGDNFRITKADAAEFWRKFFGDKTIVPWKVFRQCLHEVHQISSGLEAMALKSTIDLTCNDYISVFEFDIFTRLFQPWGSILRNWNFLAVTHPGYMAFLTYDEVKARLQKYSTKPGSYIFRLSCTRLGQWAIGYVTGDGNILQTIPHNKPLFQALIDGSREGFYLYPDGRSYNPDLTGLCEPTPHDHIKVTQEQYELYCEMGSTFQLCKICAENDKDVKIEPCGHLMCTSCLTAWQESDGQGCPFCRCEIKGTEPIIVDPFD
- assay explanation: Co-expressed Cbl-b with BirA biochemical assay (CBLB/E2-Ub binding, HTRF)
- run parameters: 0.6 nM Cbl-b co-expressed with BirA, HTRF; read-out: co-express CBLB/E2-Ub-binding assay IC50
Below: a set of entries, each annotated with reported pIC50.
Formally, pIC50 is defined as -log10 of the concentration c, with c in mol/L.

// below: answered molecules
Cn1cnnc1[C@]1(c2cccc(NC(=O)c3cc(CNCC4CCC(F)(F)CC4)c4c(n3)C(C)(C)CO4)c2)C[C@H](CC#N)C1 :: 8.16
C[C@@H]1CN(Cc2cc(C(=O)Nc3cccc([C@]4(Cc5nncn5C)C[C@@H](C#N)C4)c3)c3nccn3c2)CC[C@@H]1F :: 9.10
CC(C)CNCc1cc(C(=O)Nc2cncc([C@]3(c4nncn4C)C[C@@H](C)C3)c2)nc2cc[nH]c12 :: 8.74
Cc1c[nH]c2c(CNC3(C)CC3)cc(C(=O)Nc3cccc([C@]4(c5nncn5C)C[C@@H](CC#N)C4)c3)nc12 :: 8.85
C[C@H]1CCCN(Cc2cc(C(=O)Nc3cccc([C@]4(c5nncn5C)C[C@@H](C)C4)c3)nn3cccc23)C1 :: 7.52

According to the records, this molecule Cn1cnnc1[C@]1(c2cncc(NC(=O)c3cc(CNCC4CCC4)c4[nH]cc(F)c4n3)c2)C[C@H](C)C1 displays pIC50 of 9.15
